This listing pairs molecules with measured TGI.
System: SK-MEL-2 melanoma
Assay: NCI tumour cell line growth inhibition, 48 h

MOLECULE	TARGET OF ASSAY	MEAS VALUE
COc1ccc2c(-c3ccc(O)cc3)c(Oc3ccccc3)c(=O)oc2c1	SK-MEL-2 melanoma	> 100 µM
O=S(=O)(O)Nc1ccc(-c2nc3ccccc3s2)cc1Cl	SK-MEL-2 melanoma	> 100 µM
CN1CCN(Cc2ccc(NC(=O)c3[nH]ncc3Nc3ncnc4c3CCC4)cc2)CC1	SK-MEL-2 melanoma	6.63 µM
C=CCN=C1N=C(CC(=O)OCC)CS1	SK-MEL-2 melanoma	> 100 µM
CCOC(=O)[C@@H](C)C[C@H](Cc1ccccc1)NC(=O)c1csc([C@@H](C[C@H](C(C)C)N(C)C(=O)[C@H](CCC(C)C)NC(=O)[C@H]2CCCCN2C)OC(C)=O)n1	SK-MEL-2 melanoma	6.65 µM

As a next step, examine the molecule that follows.
Input line: Specify measured TGI for CCOC(=O)NC(N(C)C(C(C)C)P(=O)(OCC)OCC)(C(F)(F)F)C(F)(F)F (stereo not drawn) .
Output line: > 100 µM
